- TESTED TARGET: TRPC5 (Homo sapiens)
- Construct: expressed in transfected cells; host or cells: HEK 293
- Sequence (Q9UL62 whole entry): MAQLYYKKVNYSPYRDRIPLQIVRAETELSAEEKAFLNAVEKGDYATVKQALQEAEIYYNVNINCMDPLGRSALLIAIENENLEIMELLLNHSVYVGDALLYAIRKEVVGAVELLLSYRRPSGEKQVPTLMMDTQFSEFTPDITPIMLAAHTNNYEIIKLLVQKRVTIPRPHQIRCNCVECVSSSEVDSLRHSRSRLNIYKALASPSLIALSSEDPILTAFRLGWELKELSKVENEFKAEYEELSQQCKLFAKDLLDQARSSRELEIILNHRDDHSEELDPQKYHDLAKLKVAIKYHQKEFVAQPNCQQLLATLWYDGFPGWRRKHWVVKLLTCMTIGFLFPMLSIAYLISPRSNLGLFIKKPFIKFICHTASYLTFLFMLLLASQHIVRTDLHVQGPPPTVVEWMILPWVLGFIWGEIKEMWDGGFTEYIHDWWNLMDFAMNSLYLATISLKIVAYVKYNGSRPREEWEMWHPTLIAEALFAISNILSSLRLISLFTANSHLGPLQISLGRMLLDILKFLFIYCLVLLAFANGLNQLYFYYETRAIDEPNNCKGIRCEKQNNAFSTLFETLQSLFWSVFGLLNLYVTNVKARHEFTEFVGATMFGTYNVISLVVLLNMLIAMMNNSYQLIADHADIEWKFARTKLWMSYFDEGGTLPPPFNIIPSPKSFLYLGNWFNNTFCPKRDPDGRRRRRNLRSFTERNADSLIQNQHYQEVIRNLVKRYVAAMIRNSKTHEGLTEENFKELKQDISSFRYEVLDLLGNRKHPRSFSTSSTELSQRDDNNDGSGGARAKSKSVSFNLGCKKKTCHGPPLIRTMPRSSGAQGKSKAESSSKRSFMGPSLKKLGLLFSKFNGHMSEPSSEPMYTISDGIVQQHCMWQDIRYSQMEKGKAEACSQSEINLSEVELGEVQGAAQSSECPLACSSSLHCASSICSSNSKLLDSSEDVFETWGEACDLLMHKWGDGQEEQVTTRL
- MEASUREMENT NOTES: TRPC5 automated patch clamp assay (Qpatch), current block after rosiglitazone stimulation
- Format: cell-based
- RUN CONDITIONS: Table 4; HEK293 cells overexpressing TRPC5; rosiglitazone stimulation; 80 mV; read-out: TRPC5_QP_ XC50_80
OBSERVATION TYPE: IC50

# count of solved cases: 8
O=C1CN(c2c(Cl)c(Br)n[nH]c2=O)CCN1Cc1ccccc1OC(F)(F)F | 10 to 500 µM
COc1n[nH]c(=O)cc1N1CCN(Cc2ccc(F)cc2C)CC1 | 10 to 500 µM
Cc1cc(F)ccc1CN1CCN(c2c(Cl)c(Br)n[nH]c2=O)CC1=O | 10 to 500 µM
O=C1CN(c2cn[nH]c(=O)c2Cl)CCN1Cc1ccc(Oc2ccccc2)cc1 | 10 to 500 µM
O=c1[nH]ncc(N2CCOC(Cc3ccccc3)C2)c1Cl (stereo not drawn) | 10 to 500 µM
O=C1CN(c2cn[nH]c(=O)c2Cl)CCN1Cc1ccccc1-c1ccccc1 | 1 to 5 µM
Cc1ccccc1C(C)N1CCN(c2cn[nH]c(=O)c2Cl)CC1=O (stereo not drawn) | 1e-05 to 1 µM
Cc1cc(F)ccc1CN1CCN(c2cn[nH]c(=O)c2Cl)C(C)C1 (stereo not drawn) | 1 to 5 µM

Per the records, this compound ( Cc1ccccc1CN1CCN(c2cn[nH]c(=O)c2Cl)C(C)C1 (stereo not drawn) ) has IC50 equal to 1 to 5 µM

Input "Cc1ccccc1CN1CCN(c2cn[nH]c(=O)c2C2CC2)CC1=O" . Output IC50: 1 to 5 µM

The compound identified as "O=C1CN(c2cn[nH]c(=O)c2Cl)CCN1Cc1cccc2ccccc12" registered its IC50 at 1e-05 to 1 µM

Looking up Cc1ccccc1[C@H](C)N1CCN(c2cn[nH]c(=O)c2Cl)CC1=O [drawing 743] , I see its IC50 listed as 1e-05 to 1 µM

Summary for this compound, "O=C1CN(c2cnnc(Br)c2Cl)CCN1Cc1ccc(F)cc1C(F)(F)F" : IC50 is 10 to 500 µM

Record "CCN(CC)C(=O)CN1CCN(c2cn[nH]c(=O)c2Cl)[C@H](C)C1" , field IC50: 10 to 500 µM

Reported IC50 ( "Cc1ccncc1CN1CCN(c2cn[nH]c(=O)c2Cl)CC1" ) = 5 to 10 µM

----------
Each entry below lists one item and its recorded IC50 value.
- TESTED TARGET: TRPC5 (Homo sapiens)
- Construct: expressed in transfected cells; host or cells: HEK 293
- MEASUREMENT NOTES: TRPC5 automated patch clamp assay (Qpatch), current block after rosiglitazone stimulation
- Type: cell-based
- RUN CONDITIONS: Table 5; HEK293 cells overexpressing TRPC5; rosiglitazone stimulation; 80 mV; read-out: TRPC5_QP_ XC50_80

Completed entries (count: 8):
Cc1cc(F)ccc1CN1CCN(c2cn[nH]c(=O)c2C(F)(F)F)CC1=O | 5 to 10 µM
CS(=O)(=O)c1ccc(CN2CCN(c3cn[nH]c(=O)c3Cl)CC2=O)cc1 | 10 to 500 µM
COc1ccc(CN2CCN(c3cn[nH]c(=O)c3Cl)CC2=O)cc1 | 5 to 10 µM
O=C1CN(c2cn[nH]c(=O)c2Cl)CCN1Cc1cccc2[nH]ncc12 | 10 to 500 µM
C=Cc1n[nH]c(=O)c(Cl)c1N1CCN(Cc2ccc(F)cc2C)CC1 | 10 to 500 µM
O=c1[nH]ncc(N2CCc3c(ncn3Cc3ccccc3)C2)c1Cl [drawing 831] | 1 to 5 µM
O=C1CN(c2c(Cl)cn[nH]c2=O)CCN1Cc1cccc(C(F)(F)F)c1 | 10 to 500 µM
COc1ncccc1CN1CCN(c2cn[nH]c(=O)c2Cl)CC1 | 1 to 5 µM

The measured IC50 associated with "O=C1N(Cc2ccccc2C(F)(F)F)CCC12CCN(c1cn[nH]c(=O)c1Cl)CC2" reads 10 to 500 µM

Notebook: "CC[C@@H]1CN(Cc2ccc(F)cc2C)CCN1c1cn[nH]c(=O)c1Cl" , IC50 read as 10 to 500 µM

Entry under test: "O=C1CN(c2c(Cl)cn[nH]c2=O)CCN1Cc1ccc(F)cc1F" . Its IC50 was 10 to 500 µM

The measured IC50 associated with "O=C1CN(c2cn[nH]c(=O)c2Cl)CCN1Cc1ccc(F)cc1" reads 5 to 10 µM

According to the records, this compound "O=C1CN(c2cn[nH]c(=O)c2Cl)CCN1CC1CCC(F)(F)CC1" displays IC50 of 5 to 10 µM

Measured IC50, "Cc1cc(F)ccc1CN1CCN(c2c(C)cn[nH]c2=O)CC1" : 1 to 5 µM

// IC50 lookup, compound = "CS(=O)(=O)c1ccccc1CN1CCN(c2cn[nH]c(=O)c2Cl)CC1" , result: 5 to 10 µM

# compound "O=C1CN(c2cn[nH]c(=O)c2Cl)CCN1Cc1cccc2cn[nH]c12" ; its IC50 = 10 to 500 µM

IC50 recorded for this compound, "Cn1nc(CN2CCN(c3cn[nH]c(=O)c3Cl)CC2)c2ccccc21" , is 5 to 10 µM

The compound identified as "O=C1CN(c2cn[nH]c(=O)c2Cl)CCN1Cc1ccc(OC(F)(F)F)cc1F" registered its IC50 at 5 to 10 µM

Note to self: IC50 recorded for C[C@H](c1ccccc1)n1cnc2c1CCN(c1cn[nH]c(=O)c1Cl)C2 [drawing 833] was 1 to 5 µM

Form: compound = "Cc1n[nH]c(=O)c(Cl)c1N1CCN(Cc2ccccc2OC(F)(F)F)C(=O)C1" ; IC50 = 5 to 10 µM

// "O=c1[nH]ncc(N2CCN(Cc3cccnc3Oc3ccccc3)CC2)c1Cl" : IC50 value = 5 to 10 µM

In plain terms, "O=C1CN(c2cn[nH]c(=O)c2Cl)CCN1C1(c2ccccc2)CC1" has a documented IC50 of 1 to 5 µM

// recorded IC50 for "Cc1ccccc1N1CCN(c2cn[nH]c(=O)c2Cl)CC1" : 1 to 5 µM

Item: "COc1cn[nH]c(=O)c1N1CCN(Cc2ccc(F)cc2C)CC1" | IC50: 1 to 5 µM

Noted for "Cc1ccccc1CN1CCN(c2c(Cl)cn[nH]c2=O)CC1=O" : its IC50 reads 10 to 500 µM

IC50 reading for "COc1cc(C(F)(F)F)ccc1CN1CCN(c2cn[nH]c(=O)c2Cl)CC1=O" : 1 to 5 µM

For this compound ( "Cc1cc(F)ccc1CN1CCN(c2c(Cl)c(Br)n[nH]c2=O)CC1" ), measured IC50 is 10 to 500 µM
